Measured IC50 values are reported for all entries that follow.
biological target: Kappa-type opioid receptor (Homo sapiens, UniProt P41145); type: functional
Sequence (P41145 whole entry): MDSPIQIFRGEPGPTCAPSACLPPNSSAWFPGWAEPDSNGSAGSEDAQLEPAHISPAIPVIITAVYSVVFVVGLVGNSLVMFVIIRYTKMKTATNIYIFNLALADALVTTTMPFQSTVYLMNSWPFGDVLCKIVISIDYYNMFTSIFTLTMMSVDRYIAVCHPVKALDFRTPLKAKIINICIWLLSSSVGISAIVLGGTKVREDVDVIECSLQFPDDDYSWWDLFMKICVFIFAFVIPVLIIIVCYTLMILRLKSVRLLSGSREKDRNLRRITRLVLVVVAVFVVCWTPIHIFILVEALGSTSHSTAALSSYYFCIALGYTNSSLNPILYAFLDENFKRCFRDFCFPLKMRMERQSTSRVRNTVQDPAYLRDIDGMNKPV

CC1=NN(c2ccccc2)C(=O)/C1=C/C=C/c1ccc(N(C)C)cc1    > 32 µM

Now let's try a different one.
Task: Tell me the measured IC50 of Cc1ccccc1NC(=O)c1ccc(Nc2c([N+](=O)[O-])cc([N+](=O)[O-])c3ccccc23)cc1 , please.
Output: > 32 µM

---

target: DNA dC->dU-editing enzyme APOBEC-3A (Homo sapiens, UniProt P31941); assay: Dose Response confirmation of small molecule APOBEC3A DNA Deaminase Inhibitors via a fluorescence-based single-stranded DNA deaminase assay. [Related pubchem assays (depositor defined):AID493011, AID493024]; format: functional
Sequence (P31941 whole entry): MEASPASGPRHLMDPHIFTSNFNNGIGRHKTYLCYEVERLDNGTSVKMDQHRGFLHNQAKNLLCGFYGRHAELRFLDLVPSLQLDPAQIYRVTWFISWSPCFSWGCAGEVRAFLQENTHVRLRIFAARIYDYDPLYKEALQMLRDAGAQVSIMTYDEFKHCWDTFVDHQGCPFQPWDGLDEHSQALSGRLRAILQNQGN
Active and inactive are the calls of the source. How the calls were made is not given here.
Measured IC50 values are reported for all entries that follow.

CC1(C)CC(N2CCN(c3ccccc3)CC2)=CC(=[N+]2CCCC2)C1    2.15 µM (active)

Task: Tell me the measured IC50 of COc1ccc2[nH]c(=O)c(CN(C(=O)c3ccco3)C(C)C)cc2c1 , please.
Output: 6.26 µM (active)

Task: Tell me the measured IC50 of Cc1ccc(/C=C2/SC(Nc3ccc(F)cc3)=NC2=O)s1 , please.
Output: 3.22 µM (active)

---

biological target: Genome polyprotein (dengue virus type 2); assay: Dengue-2 NS5 methyltransferase inhibitors, primary screen, biochemical, confirmation dose response (AID 588689); type: functional
Sequence (P29990 2492-3391 limits assumed): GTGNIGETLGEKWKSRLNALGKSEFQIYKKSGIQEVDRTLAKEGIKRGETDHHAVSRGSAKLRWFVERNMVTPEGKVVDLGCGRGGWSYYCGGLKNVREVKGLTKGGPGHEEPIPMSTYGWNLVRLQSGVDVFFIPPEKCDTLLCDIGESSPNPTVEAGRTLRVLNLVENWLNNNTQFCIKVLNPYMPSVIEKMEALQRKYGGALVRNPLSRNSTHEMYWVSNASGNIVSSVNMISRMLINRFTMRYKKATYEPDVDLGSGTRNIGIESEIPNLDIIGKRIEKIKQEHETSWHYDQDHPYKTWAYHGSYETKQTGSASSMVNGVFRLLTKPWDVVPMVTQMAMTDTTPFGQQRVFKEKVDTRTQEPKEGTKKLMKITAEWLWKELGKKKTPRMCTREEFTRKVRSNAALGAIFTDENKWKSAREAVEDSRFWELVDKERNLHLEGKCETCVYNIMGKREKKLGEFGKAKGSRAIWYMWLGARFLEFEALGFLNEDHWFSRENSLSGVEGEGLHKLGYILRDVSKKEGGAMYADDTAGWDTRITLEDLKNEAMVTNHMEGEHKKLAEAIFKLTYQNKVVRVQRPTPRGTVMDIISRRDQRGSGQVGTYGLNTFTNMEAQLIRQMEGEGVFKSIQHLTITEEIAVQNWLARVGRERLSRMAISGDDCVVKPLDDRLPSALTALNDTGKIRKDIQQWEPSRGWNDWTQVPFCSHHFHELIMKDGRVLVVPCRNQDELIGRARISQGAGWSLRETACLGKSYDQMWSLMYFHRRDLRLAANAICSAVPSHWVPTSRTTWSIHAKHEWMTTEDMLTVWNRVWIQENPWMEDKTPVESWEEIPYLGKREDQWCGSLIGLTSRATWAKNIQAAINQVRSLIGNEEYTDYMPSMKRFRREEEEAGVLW
Calls of active or inactive are those of the source. How the calls were made is not given here.
Measured IC50 values are reported for all entries that follow.

Solved cases below.
O=C(O)/C=C/C(=O)c1c(-c2ccccc2)[nH]c2ccccc12    > 100 µM (active)
Cc1ccc(C(=O)Nc2ccccc2C(=O)O)cc1S(=O)(=O)Nc1ccc(Br)cc1    49.8 µM (active)
O=C1NC(=O)C(=Cc2cc(Cl)ccc2OCc2ccc(C(=O)O)cc2)C(=O)N1    20.7 µM (active)
O=C1Nc2ccc(F)cc2C12Nc1ccccc1-c1nnc(SCc3ccccc3Cl)nc1O2 (stereo not given)    > 100 µM (active)

Task: Tell me the measured IC50 of COC(=O)COc1ccc(C(C2C(=O)CC(C)(C)CC2=O)C2C(=O)CC(C)(C)CC2=O)cc1 , please.
Output: 48 µM (active)

Task: Tell me the measured IC50 of CCc1ccccc1N1C(=O)C(Cl)=C(N2CCOCC2)C1=O , please.
Output: 83.2 µM (active)

Task: Tell me the measured IC50 of O=C1ON=C(c2ccc([N+](=O)[O-])cc2)/C1=C/c1ccccc1O , please.
Output: 32.4 µM (active)

Task: Tell me the measured IC50 of COc1ccccc1NC1=C(NC(C)=O)C(=O)c2ccccc2C1=O , please.
Output: > 100 µM (active)

Task: Tell me the measured IC50 of O=C(O)c1ccc2nc(-c3ccco3)c(-c3ccco3)nc2c1 , please.
Output: 51 µM (active)

Task: Tell me the measured IC50 of O=C(CN1C(=O)/C(=C2/SC(=S)N(CCS(=O)(=O)O)C2=O)c2ccccc21)Nc1cccc(C(F)(F)F)c1 , please.
Output: 35.3 µM (active)

---

biological target: Microphthalmia-associated transcription factor (Homo sapiens); assay: TRPM1 promoter luciferase signal decrease, dose response, MITF inhibitor project, cell-based, SK-MEL-5, cherry-picked, set 3 (AID 493073); format: functional
Sequence (O75030 whole entry): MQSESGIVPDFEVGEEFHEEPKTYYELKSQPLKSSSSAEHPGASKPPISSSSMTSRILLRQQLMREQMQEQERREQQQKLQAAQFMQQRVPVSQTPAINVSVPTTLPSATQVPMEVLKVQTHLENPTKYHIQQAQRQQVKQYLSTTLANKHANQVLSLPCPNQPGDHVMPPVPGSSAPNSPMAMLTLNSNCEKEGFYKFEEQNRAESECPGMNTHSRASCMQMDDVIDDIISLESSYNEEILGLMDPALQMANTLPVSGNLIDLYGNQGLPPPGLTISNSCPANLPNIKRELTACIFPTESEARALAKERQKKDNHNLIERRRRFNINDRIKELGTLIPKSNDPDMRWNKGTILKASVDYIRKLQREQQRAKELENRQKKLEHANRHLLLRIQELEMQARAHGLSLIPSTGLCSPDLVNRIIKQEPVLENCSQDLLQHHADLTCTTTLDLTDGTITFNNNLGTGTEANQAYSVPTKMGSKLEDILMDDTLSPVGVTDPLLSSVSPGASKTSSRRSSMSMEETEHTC
Active and inactive are the calls of the source. No rule for the calls is given here.
measured attribute: AC50

O=C(N/N=C/c1ccc([N+](=O)[O-])s1)c1ccccc1Br    3.65 µM (active)
COc1ccc(C(=O)/C=C/C(=O)N(CC(=O)NC2CCCCC2)Cc2ccccc2OC)c(O)c1    4.04 µM (active)

Task: Tell me the measured AC50 of O=C(O)c1cc2ccccc2c(N=Nc2cccnc2)c1O , please.
Output: 11.4 µM (active)

Task: Tell me the measured AC50 of O=c1c2ccccc2nc(/C=C/c2ccc([N+](=O)[O-])o2)n1-c1ccc(O)cc1 , please.
Output: 4.45 µM (active)

Task: Tell me the measured AC50 of O=C(NC1CCCCC1)C(c1cccnc1)N(C(=O)CCl)c1cccc(Cl)c1 (configuration not stated) , please.
Output: 4.16 µM (active)

Task: Tell me the measured AC50 of Cc1ccccc1C(=O)N1CCN(c2ccc(NC(=O)c3ccc([N+](=O)[O-])o3)cc2)CC1 , please.
Output: 6.2 µM (active)

Task: Tell me the measured AC50 of Cc1nc2nc(C)c(NS(=O)(=O)c3ccc4c(c3)CCCC4)c(O)n2n1 , please.
Output: 136 µM (active)

This collection of values is drawn from ChEMBL document CHEMBL1201862.
